target: CXCR4 (Homo sapiens, UniProt P61073); assay: [125I]-CXCL12 competition binding on membranes from HEK293T cells transiently expressing CXCR4; conditions: in words
Sequence (P61073 whole entry): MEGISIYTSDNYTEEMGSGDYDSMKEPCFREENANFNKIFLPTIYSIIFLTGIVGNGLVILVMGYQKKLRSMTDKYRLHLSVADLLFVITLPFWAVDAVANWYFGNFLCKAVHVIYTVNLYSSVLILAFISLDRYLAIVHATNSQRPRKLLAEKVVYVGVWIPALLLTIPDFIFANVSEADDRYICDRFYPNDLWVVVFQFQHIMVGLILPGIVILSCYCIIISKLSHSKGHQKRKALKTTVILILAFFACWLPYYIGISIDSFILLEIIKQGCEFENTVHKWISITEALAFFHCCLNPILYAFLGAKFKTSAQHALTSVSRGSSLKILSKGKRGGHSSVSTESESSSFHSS

{"columns": ["Molecule", "affinity to CXCR4"],
 "data": [
  ["238D2: Nanobody (VHH) raised against human CXCR4, SEQ ID NO: 238 (protein, Nanobody, Nanobody constructs or fragments thereof) VHH: EVQLVESGGGLVQTGGSLRLSCAASGFTFSSYAMSWVRQAPGKGLEWVSGIKSSGDSTRYAGSVKGRFTISRDNAKNMLYLQMYSLKPEDTAVYYCAKSRVSRTGLYTYDNRGQGTQVTVSS", "low nanomolar range"],
  ["238D4: Nanobody (VHH) raised against human CXCR4, SEQ ID NO: 239 (protein, Nanobody, Nanobody constructs or fragments thereof) VHH: EVQLMESGGGLVQAGGSLRLSCAASGRTFNNYAMGWFRRAPGKEREFVAAITRSGVRSGVSAIYGDSVKDRFTISRDNAKNTLYLQMNSLKPEDTAVYTCAASAIGSGALRRFEYDYSGQGTQVTVSS", "low nanomolar range"]
]}

Provenance of the data: patent US9212226B2
